Flag rule - intrinsic clearance, rat liver microsomes less than 200 mL/min/kg flags 1; the remaining entries get -1.

Below, 5 compounds whose answers are already recorded.
{"columns": ["COMPOUND", "CLASS LABEL"],
 "data": [
  ["CCCCN(CC)c1nc(C)nc2c1c(C)c(C)n2-c1c(C)cc(C)cc1C", -1],
  ["O=C(O)c1ccc(CCC(=O)N2CCc3c(F)cc(F)cc3C2)cc1", 1],
  ["CCS(=O)(=O)N1CC(CC#N)(n2cc(-c3ncnc4[nH]ccc34)cn2)C1", 1],
  ["CN(CCc1ccccc1)C(=O)CC#N", 1],
  ["CC(C)(C)NC(=O)c1cnc(-c2ccc(Cl)s2)s1", 1]
]}

Find out if reported intrinsic clearance, rat liver microsomes for CCc1nsc(N2CCS(=O)(=O)CC2)n1 is less than 200 mL/min/kg
1

# repeat for CO[C@@H]1CC[C@@H](N(C)C(=O)COc2c(C)cccc2C)[C@H]1O
1

Then what about the compound CC(C)c1cnn2c(NCc3ccccc3)cc(NCCCCCCN)nc12 ?
-1

Entry to check: Cc1nc(-c2cc(C)on2)n(CCc2ccccc2)n1
-1

Repeat with CN(C[C@@H]1COCCO1)S(=O)(=O)Nc1ccc2ccc3ncc(-c4cnn(C)c4)cc3c(=O)c2c1
-1

Can you handle COc1ccccc1C(=O)Nc1cccc(C#N)c1 next?
1

----------
MEASURED METRIC: intrinsic clearance, rat liver microsomes (mL/min/kg)
Expressed in mL/min/kg, but write only the number.

Before answering, review these 3 worked examples.
{"columns": ["COMPOUND", "READOUT VALUE"],
 "data": [
  ["Cn1cc(CN2CCc3nc4ccccc4c(=O)n3CC2)cn1", 19.9],
  ["CN1C(=O)CCc2cc(NC(=O)C(C)(C)c3ccccc3F)ccc21", 362],
  ["CC1(C)[C@H]2CC=C(CN3CCC4(CCC(=O)N4)CC3)[C@@H]1C2", 196]
]}

Name the reported intrinsic clearance, rat liver microsomes value associated with the compound Cn1cc(CCNC(=O)N2CCc3sccc3C2)cn1
68.4

----------
MEASURED METRIC: intrinsic clearance, rat liver microsomes

{"columns": ["CHEMICAL SMILES", "READOUT VALUE"],
 "data": [
  ["Cn1cc(CCNc2cncc(Br)c2)cn1", "6.6 L/h/kg"]
]}

Return reported intrinsic clearance, rat liver microsomes; argument: CCN(C(=O)CO)[C@H]1CN(/C(=N\C#N)Nc2cccc(OC(F)F)c2)N=C1c1ccc(Cl)c(Cl)c1
11 L/h/kg

----------
Classification field: enter fulfilled for MDR1-MDCK efflux ratio values not below 7, not fulfilled for values below it.

{"columns": ["CHEMICAL SMILES", "CLASS LABEL"],
 "data": [
  ["Nc1ccc2c(c1)ncn2CCc1ccccc1", "not fulfilled"],
  ["CCOc1ccccc1C(=O)N1CCC(c2nc(-c3ccc(OC)cc3)c(C(N)=O)[nH]2)CC1", "fulfilled"],
  ["CCc1nnsc1C(=O)Nc1cccc(-c2nnc3n2CCCCC3)c1", "fulfilled"],
  ["CCN1CCC(CNC(=O)c2cc(C)nc3cc(F)ccc23)CC1", "fulfilled"],
  ["Cc1nc(CNC2CCN(C(=O)C3CC3)CC2)cs1", "not fulfilled"],
  ["OC[C@H](Nc1cncc(-c2ccc3[nH]ncc3n2)c1)c1ccccc1", "fulfilled"],
  ["CCn1nccc1CNc1ncccn1", "not fulfilled"],
  ["Cc1ccc(C(=O)NCC#Cc2ccccc2)cn1", "not fulfilled"]
]}

Hi team, for CC(C)Cc1ccccc1CNCc1ccc2[nH]cnc2c1 , is the recorded MDR1-MDCK efflux ratio at or above 7?
fulfilled

Next: Cc1cc(C(=O)N(C)c2nc3ccccc3s2)cc(O)n1
not fulfilled

What about this compound? Cc1ccc(-n2nc(C(C)(C)C)cc2NC(=O)NCc2cc(F)ccc2Oc2ccc3c(cnn3CCO)c2)cc1
fulfilled

----------
# MEASUREMENT PARAMETERS: pH 6.8
# aqueous solubility per record follows
Please state the figure in µg/mL; there is no need to write the unit.

{"columns": ["CHEMICAL SMILES", "UNIT OF MEASUREMENT", "aqueous solubility"],
 "data": [
  ["NCc1cccc(C(=O)N2CCCC2)c1", "µg/mL", 25.4],
  ["Cc1noc(C)c1CC(=O)N1CCc2[nH]c3ccc(Br)cc3c2C1", "µg/mL", 1.29],
  ["Cn1nc(C2CCNCC2)c2cccnc21", "µg/mL", 53.4],
  ["N#Cc1ccc(Cn2cncn2)c(F)c1", "µg/mL", 26.5],
  ["CN(Cc1cnn(C)c1)C(=O)c1ccccc1-c1ccccc1C#N", "µg/mL", 40.4]
]}

Entry under review: CC1(C)Cc2cc(CN3CCC4(CC3)NC(=O)N(Cc3ccccc3)C4=O)ccc2O1 . Reported aqueous solubility?
36.4

----------
Label 1 when MDR1-MDCK efflux ratio is strictly below 1; otherwise label 0.

Example cases with answers are listed next.
{"columns": ["CHEMICAL SMILES", "CLASS LABEL"],
 "data": [
  ["CO[C@@H]1CC[C@@H](N(C)C(=O)COc2c(C)cccc2C)[C@H]1O", 0],
  ["CSc1ccc(C)c(C(=O)NCCN2CCC(C)CC2)c1", 1],
  ["CC(C)C(=O)N1CC(Cc2nccc3ccn(C)c23)C1", 0],
  ["Nc1ccc(Oc2ccccc2F)nc1", 1]
]}

Would you kindly look at the next entry?
Just wondering, is MDR1-MDCK efflux ratio of CCN1CCCN(C(=O)Nc2ccc(COC3CCCC3)cc2)CC1 below 1?
0

----------
MEASURED METRIC: MDR1-MDCK efflux ratio
// no unit, no text: just the number

Reference set (8 entries):
{"columns": ["COMPOUND", "MDR1-MDCK efflux ratio"],
 "data": [
  ["COCC(=O)Nc1ccc(C)c(NC(=O)[C@H](OC)c2ccccc2)c1", 2.8],
  ["O=C(Cc1ccc(Cl)cc1)NCc1ccncc1", 0.772],
  ["Cc1ncc(CCN2C(=O)NC3(CCCC3)C2=O)s1", 91],
  ["CN(C)c1cccc(C(=O)N2CCCC(c3cccc(-c4cccs4)n3)C2)c1 (configuration not stated)", 0.647],
  ["CCN1CCOC(C(=O)N2CCC(c3cn[nH]c3)CC2)C1 (configuration not stated)", 3.51],
  ["CCS(=O)(=O)Cc1ccn(-c2cccc(F)c2)n1", 0.632],
  ["COCCc1nc(-c2ccccc2-c2ccccc2)n(CCO)n1", 15.9],
  ["CC(C)c1noc2nc(C3CC3)cc(C(=O)N3CCN(C)C(=O)C3)c12", 40.6]
]}

Item under review: NC1CCCC1C(=O)N1CCC(c2c[nH]c3ncccc23)CC1 (configuration not stated) . Reported MDR1-MDCK efflux ratio?
6.76

Another: Cc1cc(N(C)Cc2ccc(N)nc2)nc(-c2ccncc2)n1
4.4

And then Cc1cccc(C(=O)N(C)CCc2cnccn2)c1 , what is it?
0.8

Now consider COc1cc2nc(CN3CCC(CO)CC3)[nH]c(=O)c2cc1OC .
29

----------
Assign labels as follows, please: MET for intrinsic clearance, rat liver microsomes below 200 mL/min/kg; NOT MET for intrinsic clearance, rat liver microsomes equal to or exceeding 200 mL/min/kg.

A selection of reference data follows.
{"columns": ["COMPOUND", "CLASS LABEL"],
 "data": [
  ["Cn1cc(Br)cc1C(=O)N1CCc2nn[nH]c2C1", "MET"],
  ["CNCc1cc(N(C)C)nc(C2CCCN2C(=O)C2CCCC2)n1 (stereo unspecified)", "NOT MET"],
  ["O=C(CN1CCCN(c2nccs2)CC1)Nc1cccc(Cl)c1", "NOT MET"],
  ["Cc1ccc(S(=O)(=O)Nc2ccc3c(c2)c2c(n3S(=O)(=O)c3ccc(C)cc3)CCC2)cc1", "NOT MET"],
  ["c1ccc2nc(OC3CCNCC3)cnc2c1", "MET"]
]}

Identify whether the compound O=c1[nH]c(=O)n([C@H]2C[C@H](O)[C@@H](CO)O2)cc1C(F)(F)F records intrinsic clearance, rat liver microsomes below 200 mL/min/kg.
MET

And for Cc1cccc2cc(C(=O)NCCSc3nccn3C)n(C)c12 ?
NOT MET

Next record, please: c1ccc(OCc2cc(CC3(NCc4cnc5ccccc5c4)COC3)no2)cc1
NOT MET

Param item: CC(C)n1cnnc1SCOCc1ccccc1
NOT MET

Can you handle Cc1nn(C)c(C)c1CCC(=O)N1CCCc2ncccc21 next?
NOT MET

Try the compound CCCn1cc(C(=O)N2CCC(c3n[nH]cc3C(=O)N3CCOCC3)CC2)cn1
MET

----------
MEASURED METRIC: MDR1-MDCK efflux ratio
Keep it simple and answer with nothing but the number.

Known MDR1-MDCK efflux ratio results, listed for orientation:
{"columns": ["COMPOUND", "READOUT VALUE"],
 "data": [
  ["CCc1c(C(=O)N2CC[C@@](O)(CC(C)C)[C@@H](Oc3ccc(F)cc3)C2)[nH]c2ccc(C)cc12", 4.15],
  ["COc1cc(CN2CCC(c3ccnc(C)n3)CC2)ccc1F", 0.674],
  ["O=C(O)c1ccc(CCC(=O)N2CCc3c(F)cc(F)cc3C2)cc1", 4.05],
  ["Cc1nc(CN2C[C@@H](c3ccc4c(c3)OCO4)[C@@H]3[C@H]2C2CCN3CC2)co1", 53.4],
  ["C=CC[C@]1(O)CC[C@H]2[C@@H]3CCC4=CC(=O)CCC4=C3C=C[C@@]21C", 0.761],
  ["CCN(C)S(=O)(=O)N(C)Cc1cnc2ccccc2c1", 0.658]
]}

Consider the compound shown here: C=CC(=O)Nc1cccc(Nc2nc(Nc3ccc(Oc4ccnc(C(=O)NC)c4)cc3)ncc2F)c1 What is its recorded MDR1-MDCK efflux ratio?
13.2

Proceed to COc1ccc(-c2cccc(C3CCCN(C(=O)C4CCCC4)C3)n2)cc1 (stereo not given)
0.717

Also CCc1ccccc1NC(=O)c1cc(C)nc2onc(C)c12 , if possible.
0.67

Now consider C[C@@H](NC(=O)N1CCC2(CCN(C)CC2)C1)c1ccc(F)cc1 and answer again.
1.75
